Form field: Mdr1a/1b (-/-) ‘F’ estimate by model fit [95% CI) (one value per entry).
- Tested on: P-glycoprotein (Mdr1a/Mdr1b) in isolated perfused mouse lung
- TEST SUMMARY: Isolated perfused mouse lung (IPML) airway-to-perfusate absorption, Mdr1a/1b (+/+) vs (−/−)
- CONDITION: male, mouse, 50 μM

Sample answers from the record:
ITEM SMILES: CN1CCC[C@@H]1Cc1c[nH]c2ccc(CCS(=O)(=O)c3ccccc3)cc12
RESULT: 25.8 [23.6 to 27.9]
//
ITEM SMILES: CCc1cc2c(cc1CC)CC(NC[C@H](O)c1ccc(O)c3[nH]c(=O)ccc13)C2
RESULT: 40.6 [36.7 to 44.5]
//
ITEM SMILES: COc1ccc(C[C@H](N)C(=O)N[C@H]2[C@@H](O)[C@H](n3cnc4c(N(C)C)ncnc43)O[C@@H]2CO)cc1
RESULT: 56.1 [48.1 to 64.1]

Alright, here's another compound for you.
Item CC(C)(C)NC(=O)[C@@H]1C[C@@H]2CCCC[C@@H]2CN1C[C@@H](O)[C@H](Cc1ccccc1)NC(=O)[C@H](CC(N)=O)NC(=O)c1ccc2ccccc2n1 : provide Mdr1a/1b (-/-) ‘F’ estimate by model fit [95% CI)
29.1 [19.5 to 38.6]
